Data provenance: ChEMBL document CHEMBL1136011

# % release of nitric oxide annotations
Assay: In vitro percentage release of nitric oxide.
Assay Metric: % release of nitric oxide

• CN1CC(OCCCO[N+](=O)[O-])(c2ccc(-c3ccccc3)cc2)OC2CCCCC21 (stereo not given) = 1%
• O=[N+]([O-])OCCCOC1(c2ccc(-c3ccccc3)cc2)CN2CCCCC2CO1 (stereo not given) = 4.6%
• CN1CCOC(OCCCO[N+](=O)[O-])(c2ccccc2)C1 (stereo not given) = 27.2 µM µM-1
• CN1CCOC(OCCCO[N+](=O)[O-])(c2ccc(-c3ccccc3)cc2)C1 (stereo not given) = 17.3%
• CC(=O)N[C@@H](C(=O)O)C(C)(C)SN=O = 56.7%
